The origin of these recorded values is the supplement of paper PMC10126150.

System: ATP;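 note: ATP exposure 15 min at 22 °C before imaging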
Procedure Summary: switch fluorescence ratio, 500 uM ATP over buffer (Cy3 cluster intensity, sum of 5 cycles each) (fold (ratio)); higher = stronger signal-on switching upon ATP binding; sequences stand for … in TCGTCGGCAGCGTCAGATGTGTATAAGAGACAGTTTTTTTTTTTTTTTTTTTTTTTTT…TC
Experimental Context: aptamer strand: ATP DNA aptamer (quencher-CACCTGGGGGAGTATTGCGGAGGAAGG + anchor), 100 nM annealed; ATP concentration: 500 uM
Measured switch fluorescence ratio values are reported for all entries that follow.

Known results for sequences:
// query switch fluorescence ratio value for entry TTGCTCGTGG
1.03

Continue with AGACGGGCAC
1.07

Continue with GGGAATGGGA
0.997

Continue with TGCTGCGGCT
1.01

Continue with TTTGATGTAG
1.01

More entries:
// query switch fluorescence ratio value for entry ACAGCTTCTA
1.03

Continue with TAGCGGCGGC
1.01

Continue with CGGGGGAGGC
0.96

Continue with GCGTTTTCGG
1.02
